System: TGx-DDI biomarker genes in TK6 cells
Experiment: TGx-DDI transcriptomic biomarker classification by microarray
Assay type: cell-based, human
Conditions: TK6 cells, 4 h, single selected concentration
PROPERTY LABEL: TGx-DDI classification, overall call (DDI if positive in any of 2DC, PCA, PA)

Recorded results for 6 compounds are shown here.
The reported value for O=c1[nH]cc(F)c(=O)[nH]1 [5-FU] in terms of TGx-DDI classification, overall call (DDI if positive in any of 2DC, PCA, PA) is DDI

Lookup result for CC/C(=C(/CC)c1ccc(O)cc1)c1ccc(O)cc1 [diethylstilbestrol] ; measured TGx-DDI classification, overall call (DDI if positive in any of 2DC, PCA, PA): genotoxic calls

Entry Nc1ncn([C@@H]2O[C@H](CO)[C@@H](O)[C@H]2O)c(=O)n1 [5-azacytidine] ; TGx-DDI classification, overall call (DDI if positive in any of 2DC, PCA, PA) = non-DDI

# TGx-DDI classification, overall call (DDI if positive in any of 2DC, PCA, PA) of Cc1nc(Nc2ncc(C(=O)Nc3c(C)cccc3Cl)s2)cc(N2CCN(CCO)CC2)n1 [dasatanib] = genotoxic calls

get_value(item= CCn1cc(C(=O)O)c(=O)c2cc(F)c(N3CCNCC3)cc21 [norfloxacin] , readout=TGx-DDI classification, overall call (DDI if positive in any of 2DC, PCA, PA)) returns non-DDI

Input Nc1nc2[nH]cnc2c(=S)[nH]1 [6-TG] . Output TGx-DDI classification, overall call (DDI if positive in any of 2DC, PCA, PA): DDI

Proceed to the following item.
For reference, reported TGx-DDI classification, overall call (DDI if positive in any of 2DC, PCA, PA) for Sc1ncnc2nc[nH]c12 [6-mercaptopurine] stands at non-DDI
